Molecular target: UniProtKB Q13547
Sequence (Q13547 whole entry): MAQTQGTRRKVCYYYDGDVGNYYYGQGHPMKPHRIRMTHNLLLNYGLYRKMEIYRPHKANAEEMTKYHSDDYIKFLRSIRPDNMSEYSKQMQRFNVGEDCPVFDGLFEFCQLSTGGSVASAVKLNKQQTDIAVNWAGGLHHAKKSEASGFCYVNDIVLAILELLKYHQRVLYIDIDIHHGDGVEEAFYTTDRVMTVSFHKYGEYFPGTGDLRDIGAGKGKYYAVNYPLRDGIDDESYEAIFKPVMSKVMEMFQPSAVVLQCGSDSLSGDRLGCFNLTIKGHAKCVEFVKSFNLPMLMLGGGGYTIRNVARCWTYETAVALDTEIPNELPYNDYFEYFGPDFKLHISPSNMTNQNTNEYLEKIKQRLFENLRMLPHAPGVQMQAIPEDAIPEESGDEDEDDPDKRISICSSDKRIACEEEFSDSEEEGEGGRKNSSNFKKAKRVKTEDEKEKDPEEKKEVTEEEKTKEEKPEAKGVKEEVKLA
Test: HDAC1 inhibitory activity (IC50)
Format: biochemical
Conditions: Table 2; read-out: HDAC1
The reader will find reported IC50 values listed item by item below.

# molecule, limit-qualifier, IC50, µM
data = [
    ("Nc1ccccc1NC(=O)c1cnc(Nc2ccccc2)nc1", "=", 0.735),
    ("O=C(Nc1ccccc1O)c1ccncc1", "=", 5.77),
    ("CC(=O)Nc1ccc(C(=O)Nc2ccc(F)cc2N)cc1", "=", 1.23),
    ("Nc1cc(F)ccc1NC(=O)c1cnccn1", "=", 4.12),
    ("O=C(Nc1ccccc1O)c1cccnc1", "=", 10.5),
    ("O=C(Nc1ccccc1O)c1ccccn1", "=", 12.4),
    ("CC(=O)Nc1ccc(C(=O)Nc2cc(-c3ccccc3)ccc2N)cc1", "<", 0.01),
    ("Nc1ccccc1NC(=O)c1ccncc1", "=", 2.82),
    ("Nc1ccccc1NC(=O)c1cnccn1 [Compound 10, N-(2-aminophenyl)pyrazine-2-carboxamide]", "=", 0.922),
    ("O=C(Nc1ccc(F)cc1O)c1cccnc1", "=", 13.7),
    ("Nc1ccccc1NC(=O)c1ccc(Cl)nc1", "=", 3.28),
    ("Cc1ccc(C(=O)Nc2ccccc2N)cn1", "=", 1.39),
    ("Nc1cc(F)ccc1NC(=O)c1cccnc1", "=", 27),
]

All figures here come from patent US9988343B2.
